Ref: ChEMBL document CHEMBL2346553

# METHOD NOTES: in vitro
# RUN PARAMETERS: human, pbmc
READOUT LABEL: CC50 (µM)
Hi! Could you send only the number? It should be in µM, unit omitted.

Name the recorded CC50 of the item COC(=O)N[C@H](C(=O)N1CCC[C@H]1c1ncc(-c2ccc(-c3ccc(OC(F)(F)F)cc3)cc2)[nH]1)C(C)C in your answer. 11

Please report the measured CC50 for COC(=O)N[C@H](C(=O)N1CCC[C@H]1c1ncc(-c2ccc(-c3ccccc3C(F)(F)F)cc2)[nH]1)C(C)C 24

Please give measured CC50 of the following entry: COC(=O)N[C@H](C(=O)N1CCC[C@H]1c1ncc(-c2ccc(-c3cccc(C(F)(F)F)c3)cc2)[nH]1)C(C)C 44

Return the recorded CC50 value; entry: COC(=O)N[C@H](C(=O)N1CCC[C@H]1c1ncc(-c2ccc(-c3ccc(O)cc3)cc2)[nH]1)C(C)C 70

----------
// reported CC50 per item
# System: Vero
# RUN PARAMETERS: chlorocebus sabaeus
// note: answer is a bare numeric in µM

// fetch CC50 for COC(=O)N[C@H](C(=O)N1CCC[C@H]1c1ncc(-c2ccc(Cl)cc2Cl)[nH]1)C(C)C ; system: Vero 15

Specify CC50 for COC(=O)N[C@H](C(=O)N1CCC[C@H]1c1ncc(-c2ccc(C#N)cc2)[nH]1)C(C)C , system Vero. 33

Report the value of CC50 obtained on Vero for COC(=O)N[C@H](C(=O)N1CCC[C@H]1c1nc(-c2ccc(-c3ccc(CO)cc3)cc2)c[nH]1)C(C)C . 59

For Vero, give the measured CC50 of the entry COC(=O)N[C@H](C(=O)N1CCC[C@H]1c1ncc(-c2ccc(-c3ccc(C(=O)OC)cc3)cc2)[nH]1)C(C)C 17

Consider the compound COC(=O)N[C@H](C(=O)N1CCC[C@H]1c1ncc(-c2ccc(NS(C)(=O)=O)cc2)[nH]1)C(C)C tested on Vero; state its CC50. 13

***
Tell me its CC50 on Vero: C=CC[C@H](NC(C)=O)C(=O)N1CCC[C@H]1c1ncc(-c2ccc(-c3ccccc3)cc2)[nH]1 21

State the measured CC50 (Vero) of COC(=O)N[C@H](C(=O)N1CCC[C@H]1c1ncc(-c2ccc(-c3cccc(O)c3)cc2)[nH]1)C(C)C 50

Return reported CC50 for target or system Vero, item COC(=O)N[C@H](C(=O)N1CCC[C@H]1c1nc(-c2ccc(-c3ccc(C(F)(F)F)cc3)cc2)c[nH]1)C(C)C . 14

----------
# Test system: PBMC
# RUN PARAMETERS: human
Values of CC50 strictly less than 20 µM map to Criterion met, and values of at least 20 µM map to Criterion not met.

Would you kindly verify if CC50 of COC(=O)N[C@H](C(=O)N1CCC[C@H]1c1nc(-c2ccc(-c3ccc(CO)cc3)cc2)c[nH]1)C(C)C is strictly less than 20 µM? Criterion not met

Determine whether this compound shows CC50 lower than 20 µM (ties excluded): COC(=O)N[C@H](C(=O)N1CCC[C@H]1c1ncc(-c2ccccc2)[nH]1)C(C)C Criterion not met

State whether 20 µM exceeds CC50 recorded for COC(=O)N[C@H](C(=O)N1CCC[C@H]1c1ncc(-c2ccc(-c3ccc(S(C)(=O)=O)cc3)cc2)[nH]1)C(C)C . Criterion not met

is_below(CC50, 20 µM) for COC(=O)N[C@H](C(=O)N1CCC[C@H]1c1nc(I)c(-c2ccc(N=[N+]=[N-])cc2)[nH]1)C(C)C ? Criterion not met

Problem: For the compound COC(=O)N[C@H](C(=O)N1CCC[C@H]1c1ncc(-c2ccc(N)cc2)[nH]1)C(C)C , is CC50 under 20 µM? Criterion not met

***
Given COC(=O)N[C@H](C(=O)N1CCC[C@H]1c1nc(Br)c(-c2ccc(N=[N+]=[N-])cc2)[nH]1)C(C)C , is recorded CC50 strictly lower than 20 µM? Criterion not met

Could you please tell me whether CC50 recorded for COC(=O)N[C@H](C(=O)N1CCC[C@H]1c1ncc(-c2ccc(-c3ccc(C(=O)OC)cc3)cc2)[nH]1)C(C)C is less than 20 µM? Criterion met
